Test system: Bacteria: Escherichia coli, Staphylococcus aureus, Pseudomonas aeruginosa, Pseudomonas putida, Burkholderia cepacia, Alcaligenes faecalis
Experiment: Preservation test with periodic inoculation, bacteria assessment
Type: cell-based
Conditions: Polymer P8; sample stored 60 d at 40° C.
measured-endpoint: 60 d 40° C., bact. assess., 4th inoculation

Find the recorded 60 d 40° C., bact. assess., 4th inoculation belonging to Cn1sccc1=O and report it.
+

// 60 d 40° C., bact. assess., 4th inoculation lookup, key: CCCCNC(=O)OCC#CI [Iodopropynyl butyl carbamate, iodopropynyl butyl carbamate]
+

Give the measured 60 d 40° C., bact. assess., 4th inoculation of CCCCCCCCn1sc(Cl)c(Cl)c1=O .
+

Look up 60 d 40° C., bact. assess., 4th inoculation for this compound: CCCCCCCCn1sccc1=O
+

Any idea what its 60 d 40° C., bact. assess., 4th inoculation is? The compound is O=c1[nH]sc2ccccc12
+

Let us examine a further case.
# get_value(readout='60 d 40° C., bact. assess., 4th inoculation', item= Cn1sc(Cl)cc1=O )
0 (moderate growth, max. 400 colonies)
